molecular target: recombinant mouse GALK1 (Mus musculus, UniProt Q9R0N0); test: mGALK1 biochemical activity assay (Kinase-Glo Plus, ATP depletion); settings: Tables 2-15; 35 μM ATP, 100 μM galactose, 1 h; bracketed figure after some values is undefined and not reported; read-out: mGALK IC50
Sequence (Q9R0N0 whole entry): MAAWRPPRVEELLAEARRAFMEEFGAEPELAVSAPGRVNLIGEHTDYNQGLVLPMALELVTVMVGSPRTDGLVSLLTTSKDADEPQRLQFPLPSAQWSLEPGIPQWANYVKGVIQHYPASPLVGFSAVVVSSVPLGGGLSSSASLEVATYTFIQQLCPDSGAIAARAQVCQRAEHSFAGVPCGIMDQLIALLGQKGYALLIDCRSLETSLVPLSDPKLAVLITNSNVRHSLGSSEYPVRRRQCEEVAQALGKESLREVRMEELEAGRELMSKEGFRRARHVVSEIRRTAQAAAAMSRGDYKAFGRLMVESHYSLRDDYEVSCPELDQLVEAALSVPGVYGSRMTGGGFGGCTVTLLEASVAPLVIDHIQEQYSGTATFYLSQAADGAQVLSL
pIC50: −log10 of the molar value.
assay.endpoint: pIC50

>>> assay_value("COc1ccc(C2N=C(Nc3nc4cccc(N)c4o3)NC(C)=C2C(=O)Nc2cc(C(=O)O)ccn2)c(Cl)c1 (racemic)")
5.71
>>> assay_value("COc1ccccc1CNC(=O)C1=C(C)NC(Nc2nc3ccccc3o2)=NC1c1ccccc1Cl (centres unmarked)")
4.91
>>> assay_value("CC1=C(C(=O)Nc2ccc(-n3cccn3)cc2)C(c2ccccc2Cl)N=C(Nc2nc3ccccc3o2)N1 (centres unmarked)")
4.91
>>> assay_value("CC1=C(C(=O)NCc2nc3ccccc3n2C)C(c2ccccc2Cl)N=C(Nc2nc3ccccc3o2)N1 (centres unmarked)")
4.86
>>> assay_value("CC1=C(C(=O)Nc2cc(C(=O)O)ccn2)C(c2ccccc2Cl)N=C(Nc2nc3ccc(C)cc3o2)N1 (centres unmarked)")
4.76
>>> assay_value("CC1=C(C(=O)Nc2ccc(C#N)cc2)C(c2ccccc2Cl)N=C(Nc2nc3ccccc3o2)N1 (centres unmarked)")
4.86
>>> assay_value("COc1ccc(C2N=C(Nc3nc4ccc(F)cc4o3)NC(C)=C2C(=O)Nc2cc(C(=O)O)ccn2)c(Cl)c1 (racemic)")
5.51
>>> assay_value("COc1ccc([C@H]2N=C(Nc3nc4cccc(N)c4o3)NC(C)=C2C(=O)Nc2cc(C(=O)O)ccn2)c(Cl)c1")
4.46
>>> assay_value("CC1=C(C(=O)Nc2cc(C(=O)O)ccn2)C(c2ccccc2Cl)N=C(Nc2nc3cc(F)ccc3o2)N1 (centres unmarked)")
4.76
>>> assay_value("CC1=C(C(=O)Nc2ccc([N+](=O)[O-])cc2)C(c2ccccc2Cl)N=C(Nc2nc3ccccc3o2)N1 (centres unmarked)")
5.46
>>> assay_value("COc1ccc([C@H]2N=C(Nc3nc4ccc(F)cc4o3)NC(C)=C2C(=O)Nc2cc(C(=O)O)ccn2)c(Cl)c1")
4.71

* * *

assay: aqueous kinetic solubility
assay.endpoint: Sol.

>>> assay_value("CC1=C(C(=O)Nc2ccccn2)C(c2ccccc2Cl)N=C(Nc2nc3ccc(F)cc3o2)N1 (stereo not shown)")
"<1 µg/mL"
>>> assay_value("CC1=C(C(=O)Nc2cc(C(=O)O)ccn2)C(c2cc(C(=O)O)ccc2Cl)N=C(Nc2nc3ccc(F)cc3o2)N1 (stereo not shown)")
">83 µg/mL"
>>> assay_value("CC1=C(C(=O)Nc2cc(C(=O)O)ccn2)C(c2cccc(S(N)(=O)=O)c2)N=C(Nc2nc3ccc(F)cc3o2)N1 (stereo not shown)")
">84 µg/mL"
>>> assay_value("CC1=C(C(=O)Nc2cc(C(=O)O)ccn2)C(c2ccc(Cl)cc2Cl)N=C(Nc2nc3ccc(F)cc3o2)N1 (stereo not shown)")
"<1 µg/mL"

* * *

A collection of compounds and their measured Sol.
assay: aqueous kinetic solubility
assay.endpoint: Sol.

>>> assay_value("COc1cccc(C2N=C(Nc3nc4ccc(F)cc4o3)NC(C)=C2C(=O)Nc2cc(C(=O)O)ccn2)c1Cl (stereo not shown)")
">81 µg/mL"
>>> assay_value("CC1=C(C(=O)Nc2cc(C(=O)O)ccn2)C(c2cccc([N+](=O)[O-])c2Cl)N=C(Nc2nc3ccc(F)cc3o2)N1 (stereo not shown)")
">84 µg/mL"
>>> assay_value("CC1=C(C(=O)Nc2cc(C(=O)O)ccn2)C(c2ccc(N3CCCC3)cc2Cl)N=C(Nc2nc3ccc(F)cc3o2)N1 (stereo not shown)")
">87 µg/mL"
>>> assay_value("CC1=C(C(=O)Nc2cc(C(=O)O)ccn2)C(c2ccc(-c3ccccc3)cc2Cl)N=C(Nc2nc3ccc(F)cc3o2)N1 (stereo not shown)")
"<1 µg/mL"

These measurements were taken from patent US20230158025A1.
